Collected % inhibition values appear next to each entry.
tested on: YST-1; experiment: % inhibition of CellTiter-Glo viability at highest tested concentration (72 h), relative to DMSO and benzethonium chloride controls; higher = more inhibition
Measure Name: % inhibition (%)

[[record]]
molecule = "O=[N+]([O-])c1ccc2c(c1)S(=O)(=O)C=C2 [Stattic] (max concentration tested 50000 nM)"
test_target = "YST-1"
measure_name = "% inhibition"
quantitative_result = 101

[[record]]
molecule = "COc1cc2c(NC3CCN(C(C)C)CC3)nc(N3CCC(F)(F)CC3)nc2cc1OCCCN1CCCC1 [UNC0642] (max concentration tested 10000 nM)"
test_target = "YST-1"
measure_name = "% inhibition"
quantitative_result = 94.9

[[record]]
molecule = "O=C(NOCC1CC1)c1ccc(F)c(F)c1Nc1ccc(I)cc1Cl (max concentration tested 10000 nM)"
test_target = "YST-1"
measure_name = "% inhibition"
quantitative_result = 24.6

[[record]]
molecule = "CNC(=O)[C@@H](NC(=O)[C@H](CC(C)C)[C@H](O)C(=O)NO)C(C)(C)C [Marimastat] (max concentration tested 10000 nM)"
test_target = "YST-1"
measure_name = "% inhibition"
quantitative_result = 7.56


---

system: HS-Sch-2; assay: drug sensitivity score (DSS, CellTiter-Glo viability, 72 h) (DSS (dimensionless)); higher = more sensitive; extreme values may be limits of the assay
Measure Name: drug sensitivity score

[[record]]
compound = "C[C@@H](Nc1cc(F)cc(F)c1)c1cc(C(=O)N(C)C)cc2c(=O)cc(N3CCOCC3)oc12 [AZD-8186] (max concentration tested 1000 nM)"
measure_name = "drug sensitivity score"
quantitative_result = 0

[[record]]
compound = "Nc1nc(F)nc2c1ncn2[C@@H]1O[C@H](CO)[C@@H](O)[C@@H]1O [Fludarabine] (max concentration tested 10000 nM)"
measure_name = "drug sensitivity score"
quantitative_result = 2.33

[[record]]
compound = "FC(F)(F)c1ccc(CNc2ccc(Cc3c[nH]c4ncc(Cl)cc34)cn2)cn1 [Pexidartinib] (max concentration tested 10000 nM)"
measure_name = "drug sensitivity score"
quantitative_result = 0.57

[[record]]
compound = "Nc1ccn([C@@H]2O[C@H](CO)[C@@H](O)[C@@H]2O)c(=O)n1 [Cytarabine] (max concentration tested 10000 nM)"
measure_name = "drug sensitivity score"
quantitative_result = 9.14

[[record]]
compound = "O=C(c1ccc(/C=C/c2n[nH]c3ccccc23)cc1)N1CCNCC1 [KW-2449] (max concentration tested 2500 nM)"
measure_name = "drug sensitivity score"
quantitative_result = 0

[[record]]
compound = "CC(C)C[C@H](NC(=O)[C@H](Cc1ccccc1)NC(=O)c1cnccn1)B(O)O [Bortezomib] (max concentration tested 1000 nM)"
measure_name = "drug sensitivity score"
quantitative_result = 30


---

tested on: HSC2; assay: relative IC50 (inflection point of fitted dose-response curve, CellTox-Green cytotoxicity, 72 h; top asymptote may be below 50%); higher = less potent
Measure Name: relative IC50

[[record]]
molecule = "CNC(=O)c1ccc(N2C(=S)N(c3cnc(C#N)c(C(F)(F)F)c3)C(=O)C23CCC3)cc1F"
test_target = "HSC2"
result = "> 10000 nM"

[[record]]
molecule = "CCN(CC)CCNC(=O)c1c(C)[nH]c(/C=C2\\C(=O)Nc3ccc(F)cc32)c1C"
test_target = "HSC2"
result = "> 1000 nM"

[[record]]
molecule = "CNC(=O)c1ccc(N2C(=S)N(c3ccc(C#N)c(C(F)(F)F)c3)C(=O)C2(C)C)cc1F [Enzalutamide]"
test_target = "HSC2"
result = "> 10000 nM"

[[record]]
molecule = "N#CCNC(=O)c1ccc(-c2ccnc(Nc3ccc(N4CCOCC4)cc3)n2)cc1"
test_target = "HSC2"
result = "3220 nM"

[[record]]
molecule = "CC(C)n1cnc2c(NCCc3ccc(O)cc3)nc(-c3csc4ccccc34)nc21"
test_target = "HSC2"
result = "> 10000 nM"

[[record]]
molecule = "O=C(O)CC[C@H]1CC[C@@](c2cc(F)ccc2F)(S(=O)(=O)c2ccc(Cl)cc2)CC1"
test_target = "HSC2"
result = "> 1000 nM"

[[record]]
molecule = "Nc1ncnc2c1nc(N)n2[C@@H]1O[C@H](CO)[C@@H](O)[C@H]1O"
test_target = "HSC2"
result = "7010 nM"

[[record]]
molecule = "CN1CCC(COc2cnc(-c3cccc(Cn4nc(-c5cccc(C#N)c5)ccc4=O)c3)nc2)CC1"
test_target = "HSC2"
result = "> 1000 nM"

[[record]]
molecule = "Nc1nccc(-c2c(-c3ccc(F)cc3)ncn2C2CCCCC2)n1"
test_target = "HSC2"
result = "> 10000 nM"

[[record]]
molecule = "Cc1c2oc3c(C)ccc(C(=O)N[C@@H]4C(=O)N[C@H](C(C)C)C(=O)N5CCC[C@H]5C(=O)N(C)CC(=O)N(C)[C@@H](C(C)C)C(=O)O[C@@H]4C)c3nc-2c(C(=O)N[C@@H]2C(=O)N[C@H](C(C)C)C(=O)N3CCC[C@H]3C(=O)N(C)CC(=O)N(C)[C@@H](C(C)C)C(=O)O[C@@H]2C)c(N)c1=O"
test_target = "HSC2"
result = "8.46 nM"

[[record]]
molecule = "CN1CCc2c(c3ccccc3n2Cc2ccc(C(=O)NO)cc2)C1"
test_target = "HSC2"
result = "> 10000 nM"

[[record]]
molecule = "COc1cc2c(cc1O)CC[C@@H]1[C@@H]2CC[C@]2(C)[C@@H](O)CC[C@@H]12"
test_target = "HSC2"
result = "1500 nM"

[[record]]
molecule = "Cc1cccc(-c2nn3c(c2-c2ccnc4ccc(C(N)=O)cc24)CCC3)n1"
test_target = "HSC2"
result = "> 1000 nM"

[[record]]
molecule = "CC[C@H](CO)Nc1nc(NCc2ccccc2)c2ncn(C(C)C)c2n1"
test_target = "HSC2"
result = "> 10000 nM"

[[record]]
molecule = "C[C@@H]1C[C@H]2[C@@H]3CCC4=CC(=O)C=C[C@]4(C)[C@@]3(F)[C@@H](O)C[C@]2(C)[C@@]1(O)C(=O)CO"
test_target = "HSC2"
result = "> 10000 nM"

[[record]]
molecule = "Cc1c(CN2CCN(C(=O)[C@H](C)O)CC2)sc2c(N3CCOCC3)nc(-c3cnc(N)nc3)nc12"
test_target = "HSC2"
result = "> 10000 nM"

[[record]]
molecule = "CC(=O)c1c(C)c2cnc(Nc3ccc(N4CCNCC4)cn3)nc2n(C2CCCC2)c1=O"
test_target = "HSC2"
result = "> 10000 nM"

[[record]]
molecule = "O=C(Nc1c[nH]nc1-c1nc2ccc(CN3CCOCC3)cc2[nH]1)NC1CC1"
test_target = "HSC2"
result = "276 nM"

[[record]]
molecule = "CC(C)c1c(C(=O)Nc2ccccc2)c(-c2ccccc2)c(-c2ccc(F)cc2)n1CC[C@@H](O)C[C@@H](O)CC(=O)O"
test_target = "HSC2"
result = "234 nM"

[[record]]
molecule = "Cn1cc(CNCC2CCN(c3ncc(C(=O)NO)cn3)CC2)c2ccccc21"
test_target = "HSC2"
result = "226 nM"

[[record]]
molecule = "C[C@H]1C[C@@H]2[C@H]([C@@H](O)C[C@@]3(C)[C@H]2CC[C@]3(O)C(=O)CO)[C@@]2(C)C=CC(=O)C=C12"
test_target = "HSC2"
result = "> 10000 nM"

[[record]]
molecule = "O=C1CCC(N2C(=O)c3ccccc3C2=O)C(=O)N1 (stereo not drawn) [Thalidomide]"
test_target = "HSC2"
result = "> 10000 nM"

[[record]]
molecule = "COc1cc(CCc2cc(NC(=O)c3ccc(N4CC(C)NC(C)C4)cc3)n[nH]2)cc(OC)c1 (stereo not drawn)"
test_target = "HSC2"
result = "> 1000 nM"

[[record]]
molecule = "CC1(C)CCC(c2ccc(Cl)cc2)=C(CN2CCN(c3ccc(C(=O)NS(=O)(=O)c4ccc(N[C@H](CCN5CCOCC5)CSc5ccccc5)c(S(=O)(=O)C(F)(F)F)c4)cc3)CC2)C1"
test_target = "HSC2"
result = "983 nM"

[[record]]
molecule = "C[C@]12CC[C@@H]3c4ccc(O)cc4C[C@@H](CCCCCCCCC[S+]([O-])CCCC(F)(F)C(F)(F)F)[C@H]3[C@@H]1CC[C@@H]2O (stereo partly drawn)"
test_target = "HSC2"
result = "> 1000 nM"

[[record]]
molecule = "C=CC[C@@H]1/C=C(\\C)C[C@H](C)C[C@H](OC)[C@H]2O[C@@](O)(C(=O)C(=O)N3CCCC[C@H]3C(=O)O[C@H](/C(C)=C/[C@@H]3CC[C@@H](O)[C@H](OC)C3)[C@H](C)[C@@H](O)CC1=O)[C@H](C)C[C@@H]2OC"
test_target = "HSC2"
result = "> 10000 nM"

[[record]]
molecule = "O=P1(N(CCCl)CCCl)NCCCO1 (stereo not drawn) [Cyclophosphamide]"
test_target = "HSC2"
result = "> 40000 nM"

[[record]]
molecule = "COc1cc2nccc(Oc3ccc(NC(=O)Nc4cc(C)on4)c(Cl)c3)c2cc1OC"
test_target = "HSC2"
result = "> 10000 nM"


Each recorded value in this set is attributed to the supplement of paper PMC5579334.
